Examples of molecules with documented pIC50 follow.
Biological target: UniProt:Q9H3R0
Sequence (Q9H3R0 whole entry): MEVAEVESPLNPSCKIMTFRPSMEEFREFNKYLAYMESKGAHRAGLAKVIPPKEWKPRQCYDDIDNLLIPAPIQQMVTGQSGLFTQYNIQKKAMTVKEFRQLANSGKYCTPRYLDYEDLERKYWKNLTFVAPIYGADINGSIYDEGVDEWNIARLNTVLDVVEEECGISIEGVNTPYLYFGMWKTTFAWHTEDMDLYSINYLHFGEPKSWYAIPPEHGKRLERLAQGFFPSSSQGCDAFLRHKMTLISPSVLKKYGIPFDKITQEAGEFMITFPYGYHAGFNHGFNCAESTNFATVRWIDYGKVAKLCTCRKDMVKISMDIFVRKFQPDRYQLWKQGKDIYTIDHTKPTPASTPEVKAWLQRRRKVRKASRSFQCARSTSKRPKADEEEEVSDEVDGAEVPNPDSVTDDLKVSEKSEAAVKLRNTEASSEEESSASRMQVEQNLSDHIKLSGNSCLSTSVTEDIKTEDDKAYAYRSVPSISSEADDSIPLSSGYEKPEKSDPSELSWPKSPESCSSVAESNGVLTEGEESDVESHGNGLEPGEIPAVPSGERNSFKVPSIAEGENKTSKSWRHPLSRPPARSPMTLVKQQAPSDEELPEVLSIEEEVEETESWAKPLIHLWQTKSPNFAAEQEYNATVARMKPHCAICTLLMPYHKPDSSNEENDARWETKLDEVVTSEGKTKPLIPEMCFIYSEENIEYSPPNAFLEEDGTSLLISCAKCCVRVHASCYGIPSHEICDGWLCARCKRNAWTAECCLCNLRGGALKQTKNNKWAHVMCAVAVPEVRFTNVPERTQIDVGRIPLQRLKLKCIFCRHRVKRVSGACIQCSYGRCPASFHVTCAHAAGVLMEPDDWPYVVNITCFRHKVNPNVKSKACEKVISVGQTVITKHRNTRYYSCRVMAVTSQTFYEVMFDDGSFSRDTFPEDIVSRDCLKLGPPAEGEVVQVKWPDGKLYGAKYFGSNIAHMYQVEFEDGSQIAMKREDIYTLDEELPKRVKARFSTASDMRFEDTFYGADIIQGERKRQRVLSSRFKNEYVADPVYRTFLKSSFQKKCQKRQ
Experiment: biochemical
pIC50: −log10 of the molar value.

Given smiles: COc1ccc(-c2c(-c3cc(C(=O)O)ccn3)ncn2C)cc1
Target under test: UniProt:Q9H3R0
Sign: =
pIC50: 6.00
//
Given smiles: O=C(O)c1ccncc1NCC12CC3CC(CC(C3)C1)C2
Target under test: UniProt:Q9H3R0
Sign: >
pIC50: 7.00
//
Given smiles: COc1cc(COc2cc3nccc(C(=O)O)c3[nH]2)ccc1Cl
Target under test: UniProt:Q9H3R0
Sign: >
pIC50: 7.00
//
Given smiles: Cn1cnc(-c2cc(C(=O)O)ccn2)c1
Target under test: UniProt:Q9H3R0
Sign: >
pIC50: 7.00
//
Given smiles: O=C(O)c1ccnc2cc(OCc3ccc(Cl)c(OC(F)(F)F)c3)[nH]c12
Target under test: UniProt:Q9H3R0
Sign: >
pIC50: 7.00
//
Given smiles: Cn1nc(Nc2cnccc2C(=O)O)c2cccnc21
Target under test: UniProt:Q9H3R0
Sign: =
pIC50: 7.00
//
Given smiles: O=C(O)c1ccnc(-n2nccc2OCc2ccc(Cl)cc2)c1
Target under test: UniProt:Q9H3R0
Sign: >
pIC50: 7.00
//
Given smiles: Cc1cc(Cl)ccc1COc1ccnn1-c1cc(C(=O)O)ccn1
Target under test: UniProt:Q9H3R0
Sign: =
pIC50: 7.00
//
Given smiles: CC(C)Cn1nc(Nc2cnccc2C(=O)NC#N)c2cc(F)ccc21
Target under test: UniProt:Q9H3R0
Sign: =
pIC50: 6.00
//
Given smiles: Cn1cnc(-c2cc(-c3nn[nH]n3)ccn2)c1
Target under test: UniProt:Q9H3R0
Sign: <
pIC50: 5.00
//
Given smiles: O=C(O)c1ccnc2cc(OCc3ccc(Cl)c(OCC4CC4)c3)[nH]c12
Target under test: UniProt:Q9H3R0
Sign: >
pIC50: 7.00
//
Given smiles: O=C(O)c1ccnc(-n2ncc(CCO)c2OCc2ccc(F)cc2)c1
Target under test: UniProt:Q9H3R0
Sign: =
pIC50: 6.00
//
Given smiles: O=C(O)c1ccncc1Nc1nn(C2CCCC2)c2ccc(F)cc12
Target under test: UniProt:Q9H3R0
Sign: =
pIC50: 7.00
//
Given smiles: Cn1cnc(-c2cc(C(=O)O)ccn2)c1-c1ccc(OCC2CC2)cc1
Target under test: UniProt:Q9H3R0
Sign: =
pIC50: 7.00
